target: Cathepsin B (Homo sapiens, UniProt P07858); construct: purchased Biovision K147-100; assay: IC50 determination against Cathepsin B (Biovision kit K147-100); assay type: biochemical; details: CTSB; Exp-2; read-out: IC50 (nM) Exp-2
Metric: IC50 (nM)
Report the figure in nM without appending any unit label.

Study these solved cases before continuing.
- CCOC(=O)[C@H]1O[C@@H]1C(=O)N[C@@H](CCSC)C(=O)NCCCc1ccccc1: 20.7
- CCOC(=O)[C@H]1O[C@@H]1C(=O)N[C@@H](CCSC)C(=O)NC(CC)CC: 80
- CCCCCCNC(=O)[C@H](CCSC)NC(=O)[C@H]1O[C@@H]1C(=O)OCC: 9.33
- CCOC(=O)[C@H]1O[C@@H]1C(=O)N[C@@H](CCSC)C(=O)NCCc1cccc(F)c1: 25.9
- CCOC(=O)[C@H]1O[C@@H]1C(=O)N[C@@H](CCSC)C(=O)NCCCCc1ccccc1: 27.1
- CCOC(=O)[C@H]1O[C@@H]1C(=O)N[C@@H](CC(C)C)C(=O)NCCC(C)C [zxy-37, E64d, reference compound]: 13.5

In the following, a different compound is considered.
If you can, please state the reported IC50 value of CCOC(=O)[C@H]1O[C@@H]1C(=O)N[C@@H](CCSC)C(=O)N1CCC(c2ccccc2)CC1 .
4.64

---

Overview of reported inhibition at 10 µM across a group of compounds:
target: Cathepsin K (Homo sapiens); construct: purchased Biovision K150-100; assay: Preliminary screening of Cathepsin K (Cathepsin K Inhibitor Screening Kit K150-100, Biovision); assay type: biochemical; settings: 10 μM compound; replicate 1; relative inhibition rate vs 10 μM FF-FMK control; read-out: Inhibition % (10 μM) replicate 1
Sequence (P43235 115-329): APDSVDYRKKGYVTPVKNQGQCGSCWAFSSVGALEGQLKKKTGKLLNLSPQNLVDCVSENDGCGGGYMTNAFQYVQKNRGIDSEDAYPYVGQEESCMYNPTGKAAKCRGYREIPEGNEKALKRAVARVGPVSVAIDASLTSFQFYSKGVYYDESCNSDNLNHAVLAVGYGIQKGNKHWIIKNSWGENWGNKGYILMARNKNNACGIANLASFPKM

Study these solved cases before continuing.
- CCOC(=O)[C@H]1O[C@@H]1C(=O)N[C@@H](CSCc1ccccc1)C(=O)NCCc1ccc(C)cc1: 67.2%
- CCOC(=O)[C@H]1O[C@@H]1C(=O)N[C@@H](CCSC)C(=O)N1CCCCC1CC (stereo partly shown): 72%
- CCOC(=O)[C@H]1O[C@@H]1C(=O)N[C@@H](CCSC)C(=O)NCCCc1ccccc1: 96.9%
- CCOC(=O)[C@H]1O[C@@H]1C(=O)N[C@@H](CCSC)C(=O)NC(C)(C)CC: 44.1%
- CCOC(=O)[C@H]1O[C@@H]1C(=O)N[C@@H](CSCc1ccccc1)C(=O)NCC(C)(C)C: 50.1%

If you can, please state the reported inhibition at 10 µM value of CCOC(=O)[C@H]1O[C@@H]1C(=O)N[C@@H](CSCc1ccccc1)C(=O)NC(C)CC (stereo partly shown) .
33.5%

Another compound to look at: CCOC(=O)[C@H]1O[C@@H]1C(=O)N[C@@H](CCSC)C(=O)NCCc1ccc(C)cc1
34.9%

---

molecular target: Cathepsin S (Homo sapiens, UniProt P25774); construct: purchased Biovision K149-100; experiment: IC50 determination against Cathepsin S (Biovision kit K149-100); type: biochemical; conditions: CTSS; Exp-2; read-out: IC50 (nM) Exp-2
Sequence (P25774 115-331): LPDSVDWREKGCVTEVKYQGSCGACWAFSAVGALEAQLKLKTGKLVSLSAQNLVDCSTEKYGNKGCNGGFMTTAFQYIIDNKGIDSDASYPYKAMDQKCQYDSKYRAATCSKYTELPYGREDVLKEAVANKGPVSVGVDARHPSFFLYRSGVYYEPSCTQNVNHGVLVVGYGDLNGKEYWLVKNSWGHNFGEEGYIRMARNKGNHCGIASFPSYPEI
// classify: if (IC50 < 3000 nM) fulfilled else not fulfilled

# count of solved cases: 2
• CCOC(=O)[C@H]1O[C@@H]1C(=O)N[C@@H](CCSC)C(=O)N1CCC(c2ccccc2)CC1 = fulfilled
• CCOC(=O)[C@H]1O[C@@H]1C(=O)N[C@@H](CCSC)C(=O)NCCCCc1ccccc1 = fulfilled

Strictly below 3000 nM: is that where IC50 of CCCCCCNC(=O)[C@H](CCSC)NC(=O)[C@H]1O[C@@H]1C(=O)OCC sits?
not fulfilled

Another compound to look at: CCOC(=O)[C@H]1O[C@@H]1C(=O)N[C@@H](CCSC)C(=O)NCCc1cccc(F)c1
fulfilled

Another compound to look at: CCOC(=O)[C@H]1O[C@@H]1C(=O)N[C@@H](CC(C)C)C(=O)NCCC(C)C [zxy-37, E64d, reference compound]
fulfilled

The reported measurements were obtained from patent US10647690B2.
